Reference for the values: paper PMC9130233

measurement protocol: Toxicokinetics (blood), 14-day inhalation study in Sprague Dawley rats
Type: in vivo, rat
condition: male, Sprague Dawley, rat, blood, inhaled or intranasal, 10.8 mg/kg/day, SD rat blood, inhalation, 10.8 mg/kg/day, Day 1, Male; read-out: Cmax, mean (SE)
endpoint: Cmax (ng/mL)
Value expressed in ng/mL; do not type the unit.

Input: Dear colleague, I am looking for the recorded Cmax of the following compound: "CCn1c(C(C)(C)Oc2ccc(F)cc2F)nc2cc(NC(=O)Cc3ccc(S(=O)(=O)CC)cc3)ccc21"
Output: 370

----------
measurement protocol: Toxicokinetics (blood), 14-day inhalation study in Sprague Dawley rats
Assay type: in vivo, rat
condition: both sexes, Sprague-Dawley, rat, whole blood, inhaled or intranasal, 10.8 mg/kg/day, SD rat blood, inhalation, 10.8 mg/kg/day, Day 14, Mean
endpoint: half-life
Hi, when you answer, please include the unit after the number. Thanks!

Input: Dear colleague, I am looking for the recorded half-life of the following compound: CCn1c(C(C)(C)Oc2ccc(F)cc2F)nc2cc(NC(=O)Cc3ccc(S(=O)(=O)CC)cc3)ccc21 [PCCR-1]
Output: 5.1 h

----------
measurement protocol: Drug concentrations on day-8 in CS-model mice after 7-day intranasal treatment
Type: in vivo
condition: C57BL/6, mouse, plasma, other: intranasal; CS exposed mice, day-8, intranasal 1 µg/animal; read-out: Total concentration Plasma
Experimental: Additionally, after 7-day intranasal treatment with PCCR-1 in the CS-model in mice as described above, blood, BAL fluid and lung tissues were collected on day-8 approximately 1 h after the last treatment dose for estimating the drug concentrations for PK-PD correlation.
endpoint: concentration at 1 h

Input: Dear colleague, I am looking for the recorded concentration at 1 h of the following molecule: "CCn1c(C(C)(C)Oc2ccc(F)cc2F)nc2cc(NC(=O)Cc3ccc(S(=O)(=O)CC)cc3)ccc21"
Output: < 1.85 nM

----------
measurement protocol: Toxicokinetics (blood), 14-day inhalation study in Sprague Dawley rats
Type: in vivo, rat
condition: both sexes, Sprague-Dawley, rat, blood, inhaled or intranasal, 3.4 mg/kg/day, SD rat blood, inhalation, 3.4 mg/kg/day, Day 14, Mean
endpoint: half-life (h)
Value expressed in h; do not type the unit.

Input: Dear colleague, I am looking for the recorded half-life of the following compound: CCn1c(C(C)(C)Oc2ccc(F)cc2F)nc2cc(NC(=O)Cc3ccc(S(=O)(=O)CC)cc3)ccc21 [PCCR-1]
Output: 6.4

----------
System: IL-17 in peritoneal macrophages
measurement protocol: IL-17 release, mouse peritoneal macrophages, LPS
Format: cell-based
condition: Peritoneal macrophage, n = 2, read-out: IC50, IL-17 inhibition
endpoint: pIC50
Please report pIC50 as the negative decimal logarithm of the molar concentration, giving only the number.

Input: Dear colleague, I am looking for the recorded pIC50 of the following molecule: "CCn1c(C(C)(C)Oc2ccc(F)cc2F)nc2cc(NC(=O)Cc3ccc(S(=O)(=O)CC)cc3)ccc21"
Output: 5.86

----------
measurement protocol: Toxicokinetics (blood), 14-day inhalation study in Sprague Dawley rats
Assay type: in vivo, rat
condition: female, Sprague-Dawley, rat, whole blood, inhaled or intranasal, 10.8 mg/kg/day, SD rat blood, inhalation, 10.8 mg/kg/day, Day 14, Female; read-out: AUC0-tlast, mean (SE)
endpoint: AUC(0-t) (ng·h/mL)
Value expressed in ng·h/mL; do not type the unit.

Input: Dear colleague, I am looking for the recorded AUC(0-t) of the following compound: "CCn1c(C(C)(C)Oc2ccc(F)cc2F)nc2cc(NC(=O)Cc3ccc(S(=O)(=O)CC)cc3)ccc21"
Output: 8050
